FYI, the data here is from ChEMBL document CHEMBL1201862.

# SYSTEM_NAME: Streptokinase A (Streptococcus pyogenes serotype M1)
# Sequence (P10520 whole entry): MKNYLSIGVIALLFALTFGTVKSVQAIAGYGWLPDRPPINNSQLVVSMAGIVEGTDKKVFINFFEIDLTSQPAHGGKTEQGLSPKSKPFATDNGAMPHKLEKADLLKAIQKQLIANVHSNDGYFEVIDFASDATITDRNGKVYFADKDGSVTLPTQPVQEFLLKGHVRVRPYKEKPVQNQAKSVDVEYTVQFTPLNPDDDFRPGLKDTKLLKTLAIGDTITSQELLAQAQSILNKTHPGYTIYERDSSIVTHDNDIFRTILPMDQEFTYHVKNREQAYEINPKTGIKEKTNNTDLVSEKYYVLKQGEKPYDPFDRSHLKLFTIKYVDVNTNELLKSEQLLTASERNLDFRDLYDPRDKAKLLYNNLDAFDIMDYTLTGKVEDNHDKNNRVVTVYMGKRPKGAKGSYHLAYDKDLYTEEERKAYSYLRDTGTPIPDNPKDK
# ASSAY_INFO: S. pyogenes streptokinase expression inhibitors, potency, dose response, plasminogen activation absorbance, OD405 (AID 1914);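 also: secreted streptokinase activity via plasminogen activation per viability signal from cell pellet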
# Format: functional, Streptococcus pyogenes M1 GAS
Activity calls are given as the source filed them. Rule as the data show it: actives have a measured EC50 and inactives only a lower limit.
VALUE_TYPE: EC50

Incoming: Streptokinase A (Streptococcus pyogenes serotype M1) / EC50 / CCS(=O)(=O)N1Cc2ccccc2CC1C(=O)Nc1nnc(SCc2ccc(C#N)cc2)s1 (stereo not drawn) : value?
Outgoing: > 150 µM (not active)

Incoming: Requested read-out EC50, target or system Streptokinase A (Streptococcus pyogenes serotype M1), entry CC(C)(C)NC(=O)C1CC2CCCCC2CN1 (stereo not drawn)
Outgoing: > 150 µM (not active)

Incoming: Identify the measured EC50 of `COc1cccc(N=Nc2c(N)nn3c(O)cc(-c4ccccc4)nc23)c1` for Streptokinase A (Streptococcus pyogenes serotype M1).
Outgoing: > 150 µM (not active)

Incoming: Request: EC50, test system Streptokinase A (Streptococcus pyogenes serotype M1), entry `O=C(Nc1nc(-c2ccccn2)cs1)c1ccco1`
Outgoing: > 150 µM (not active)

Incoming: Find the measured EC50: item COc1ccc(-c2nc(NC(=O)C3CC(=O)N(c4ccc5c(c4)OCCO5)C3)sc2C)cc1 (stereo not drawn) , target or system Streptokinase A (Streptococcus pyogenes serotype M1).
Outgoing: > 150 µM (not active)

Incoming: Can you look up EC50 on Streptokinase A (Streptococcus pyogenes serotype M1) for `Cc1ccc(Oc2ccc3c(c2)C(=O)N(c2cccc4cccnc24)C3=O)cc1` ?
Outgoing: 25.3 µM (active)

Incoming: Give the reported EC50 for `Cc1ccccc1-n1cnc2cc(NCc3cccs3)ccc21` (system: Streptokinase A (Streptococcus pyogenes serotype M1)).
Outgoing: 87.8 µM (active)

Incoming: Streptokinase A (Streptococcus pyogenes serotype M1) / EC50 / `COc1ccccc1-c1cc(=O)c2c(O)ccc([N+](=O)[O-])c2o1` : value?
Outgoing: > 150 µM (not active)

Incoming: Recall the recorded EC50 for `Cc1cccc(C)c1-n1cccc1/C=C1\SC(=S)N(c2cccc(C(=O)O)c2)C1=O` with Streptokinase A (Streptococcus pyogenes serotype M1) and state it.
Outgoing: 3.8 µM (active)

Incoming: What reported EC50 corresponds to `COc1cccc(C(=O)Oc2ccc(/C=N/Nc3ccc(C(=O)O)cc3)cc2OC)c1` on Streptokinase A (Streptococcus pyogenes serotype M1)?
Outgoing: > 150 µM (not active)

Incoming: Quick check: EC50 on Streptokinase A (Streptococcus pyogenes serotype M1), item `CSc1nnc2nc3c(c(O)n12)C1(CCCCC1)Cc1ccccc1-3` ?
Outgoing: > 150 µM (not active)

Incoming: Kindly state the measured EC50 obtained for `N#Cc1ccc(C(=O)Nc2nc(SCc3ccc(Cl)cc3)n[nH]2)cc1` with Streptokinase A (Streptococcus pyogenes serotype M1).
Outgoing: > 150 µM (not active)

Incoming: Can you look up EC50 on Streptokinase A (Streptococcus pyogenes serotype M1) for `CC(C)Cc1nnc(NC(=O)CCC(=O)N2CCN(c3ccccc3)CC2)s1` ?
Outgoing: > 150 µM (not active)

Incoming: Field: EC50 (Streptokinase A (Streptococcus pyogenes serotype M1)). Entry: `O=S(=O)(NCCSCc1c(Cl)cccc1Cl)c1ccc2c(c1)OCCO2`
Outgoing: > 150 µM (not active)

Incoming: Tell me reported EC50 for `CC(C)Nc1nc(Oc2cccc(Cl)c2Cl)cc(C(F)(F)F)n1` , tested with Streptokinase A (Streptococcus pyogenes serotype M1).
Outgoing: > 150 µM (not active)

Incoming: Enter reported EC50 observed with Streptokinase A (Streptococcus pyogenes serotype M1) for `O=C(Nc1ccc(C(=O)NCc2ccc(F)cc2)cc1)C1=CSCCO1`
Outgoing: > 150 µM (not active)

Incoming: Find EC50 (Streptokinase A (Streptococcus pyogenes serotype M1)) for the entry `CCOC(=O)c1sc2nc3c(SCC(=O)O)cc(C(=O)c4cc(F)ccc4O)cn3c(=O)c2c1C`
Outgoing: 15.4 µM (active)

Incoming: Request: EC50, test system Streptokinase A (Streptococcus pyogenes serotype M1), entry `CCCCCn1c(N)c(-c2nc3ccccc3s2)c2c([N+](=O)[O-])nn(CC)c(=O)c21`
Outgoing: > 150 µM (not active)

Incoming: Record `O=C(NCC1(N2CCCCC2)CCCCC1)c1cccc(NS(=O)(=O)c2ccccc2)c1` : what is its EC50 with Streptokinase A (Streptococcus pyogenes serotype M1)?
Outgoing: > 150 µM (not active)

Incoming: Provide value of EC50 for this record tested with Streptokinase A (Streptococcus pyogenes serotype M1): `Cc1cc(C)c(OCC(=O)N2CCN(c3ncc(C(F)(F)F)cc3Cl)CC2)c(C)c1`
Outgoing: 7.69 µM (active)

Incoming: Missing value: EC50, Streptokinase A (Streptococcus pyogenes serotype M1), entry `COc1ccc(S(=O)(=O)N/N=C(/C)c2ccncc2)cc1` . Fill in?
Outgoing: > 150 µM (not active)

Incoming: Reported EC50 for Streptokinase A (Streptococcus pyogenes serotype M1), given `O=C(Nc1nc2ccccc2n1CCOc1ccccc1)c1ccco1` ?
Outgoing: > 150 µM (not active)

Incoming: Request - read-out EC50 | tested on Streptokinase A (Streptococcus pyogenes serotype M1) | compound `CCCCC/C=C\C/C=C\C/C=C\C/C=C\CCCC(=O)Nc1ccc(O)cc1`
Outgoing: > 150 µM (inconclusive)
